target.of.assay: IDH1-R132H recombinant protein (Homo sapiens (Human), UniProt O75874, R132H)
Sequence (O75874 whole entry R132H): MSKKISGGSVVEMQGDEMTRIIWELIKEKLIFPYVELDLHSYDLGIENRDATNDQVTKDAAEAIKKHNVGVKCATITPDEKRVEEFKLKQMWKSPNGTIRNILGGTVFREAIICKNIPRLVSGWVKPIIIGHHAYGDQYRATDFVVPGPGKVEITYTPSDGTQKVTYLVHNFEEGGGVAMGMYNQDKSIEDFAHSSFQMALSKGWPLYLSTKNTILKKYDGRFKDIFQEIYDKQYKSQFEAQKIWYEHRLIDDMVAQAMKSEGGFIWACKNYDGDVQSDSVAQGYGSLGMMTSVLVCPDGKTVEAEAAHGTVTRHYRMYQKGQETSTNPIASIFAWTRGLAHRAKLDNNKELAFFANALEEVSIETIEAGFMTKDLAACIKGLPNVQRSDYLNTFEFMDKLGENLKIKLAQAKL
method: IDH1-R132H enzymatic assay (NADPH consumption, diaphorase/resazurin readout)
condition.label: inhibition of NADPH consumption, 30 nM IDH1-R132H; read-out: Enzyme IDH1 R132H IC50
pIC50: −log10 of the molar value.
metric.name: pIC50

Worked set:
entry.smiles	pIC50
CC(C)CN1C(=O)OCc2cnc(N[C@@H](C)c3cc4cc(Cl)ccc4[nH]c3=O)nc21	> 7.00
Cc1n[nH]c2cc(NCc3cc4cc(Cl)ccc4[nH]c3=O)ccc12	< 5.00
O=c1[nH]c2ccc(Cl)cc2cc1CNc1cccc2c1OCC2	5.00 to 6.00
O=c1[nH]c2ccc(Cl)cc2cc1CNc1cccc2cccnc12	5.00 to 6.00
C[C@@H](Nc1ncc2c(n1)N(C)C(=O)OC2)c1cc2cc(Cl)c(F)cc2[nH]c1=O	5.00 to 6.00

So what's the measured pIC50 for this one? C[C@H](Nc1ncc2c(n1)N(C)C(=O)OC2)c1cc2cc(Cl)ccc2[nH]c1=O
> 7.00

Name the reported pIC50 value associated with the compound C[C@H](Nc1ncc2c(n1)NC(=O)CC2)c1cc2cc(Cl)ccc2[nH]c1=O
5.00 to 6.00

Can you share its pIC50? I mean this compound: COc1cc2cc(CNc3ccc4[nH]c(-c5ccc6[nH]cnc6c5)nc4c3)c(=O)[nH]c2cc1OC
< 5.00

Recorded pIC50 of C[C@H](Nc1ncc2c(n1)NC(=O)OC2)c1cc2cc(Cl)ccc2[nH]c1=O , please.
> 7.00

Quick one: pIC50 of O=c1[nH]c2ccc(Cl)cc2cc1CNc1cc2ccccc2cn1 ?
5.00 to 6.00

Name the recorded pIC50 for CC(C)(C)c1ccc2[nH]c(=O)c(CNc3ccc4[nH]ncc4c3)cc2c1 .
5.00 to 6.00

# lookup: pIC50 of C[C@H](Nc1ncc2oc(=O)n(C)c2n1)c1cc2cc(Cl)ccc2[nH]c1=O
> 7.00

Which pIC50 is listed for O=c1[nH]c2ccc(Cl)cc2cc1CNc1cccc2c1OCCC2 ?
< 5.00

Given the compound N#Cc1ccc(NCc2cc3cc(Cl)ccc3[nH]c2=O)c2ccccc12 , what is its reported pIC50?
5.00 to 6.00

Item C[C@H](Nc1ncc2oc(=O)[nH]c2n1)c1cc2cc(Cl)ccc2[nH]c1=O has what recorded pIC50?
> 7.00
